Source of measurements: patent US20260242735A1

# system: human CD33 L197A (human, UniProt P20138 18-364)
# Sequence (P20138 18-364 L197A limits assumed): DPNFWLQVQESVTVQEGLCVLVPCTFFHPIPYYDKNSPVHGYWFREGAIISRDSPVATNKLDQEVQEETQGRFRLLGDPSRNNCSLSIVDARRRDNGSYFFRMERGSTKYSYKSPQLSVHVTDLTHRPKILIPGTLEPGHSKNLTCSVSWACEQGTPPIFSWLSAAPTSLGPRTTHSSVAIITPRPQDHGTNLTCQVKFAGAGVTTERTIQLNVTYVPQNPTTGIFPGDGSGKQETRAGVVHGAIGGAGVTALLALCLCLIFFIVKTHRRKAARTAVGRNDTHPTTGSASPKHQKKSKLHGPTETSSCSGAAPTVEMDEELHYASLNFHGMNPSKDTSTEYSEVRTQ
# procedure_details: alanine scan, flow cytometry, HEK293-T;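 further: antibody binding to each alanine-substituted CD33 mutant expressed transiently in HEK293-T, read as fluorescence minus background, mean of duplicates, relative to wild-type CD33 set as 100%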
quantity_name: Mean % WT Binding (%)
Numbers only; they are read as %.

QUERY: For Refmab #1 (antibody, V domains shown, In the alanine scan antibodies were used as IgG or Fab; also called hP67.6) VH: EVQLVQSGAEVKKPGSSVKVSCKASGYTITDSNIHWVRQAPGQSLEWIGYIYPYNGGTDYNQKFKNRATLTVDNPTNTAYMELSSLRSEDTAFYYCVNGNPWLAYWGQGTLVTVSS VL: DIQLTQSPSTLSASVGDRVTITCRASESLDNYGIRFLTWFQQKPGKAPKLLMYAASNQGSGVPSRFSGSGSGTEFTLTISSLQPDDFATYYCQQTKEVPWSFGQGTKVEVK , what is its reported Mean % WT Binding?
RESULT: 95.5

QUERY: # query: Mean % WT Binding of entry Refmab #4 (antibody, V domains shown, In the alanine scan antibodies were used as IgG or Fab) VH: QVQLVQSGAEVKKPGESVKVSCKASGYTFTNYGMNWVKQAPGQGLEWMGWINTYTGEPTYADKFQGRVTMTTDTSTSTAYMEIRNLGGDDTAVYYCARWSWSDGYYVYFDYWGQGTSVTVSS VL: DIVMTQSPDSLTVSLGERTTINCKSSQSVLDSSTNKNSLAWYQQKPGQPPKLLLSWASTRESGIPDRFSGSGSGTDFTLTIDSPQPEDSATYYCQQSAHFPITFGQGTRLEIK
RESULT: 95.3

QUERY: # lookup: Mean % WT Binding of Refmab #3 (antibody, V domains shown, In the alanine scan antibodies were used as IgG or Fab) VH: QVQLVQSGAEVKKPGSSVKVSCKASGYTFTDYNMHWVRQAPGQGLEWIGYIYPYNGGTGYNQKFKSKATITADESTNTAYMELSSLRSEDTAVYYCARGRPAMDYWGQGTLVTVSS VL: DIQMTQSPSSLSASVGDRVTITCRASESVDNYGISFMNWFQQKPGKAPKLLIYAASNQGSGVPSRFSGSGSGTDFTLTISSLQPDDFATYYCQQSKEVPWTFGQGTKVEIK
RESULT: 91.4
